Assay: Inhibition of TRKA G595R/L657M double mutant(unknown origin) in presence of [gamma-33P]ATP by hotspot kinase assay
Design: species or system Homo sapiens
measurement-type: IC50 (nM)
Give just the number in nM; leave the unit off.

Q: Tell me the measured IC50 of O=C(Nc1cnn2ccc(N3CCC[C@H]3c3cc(F)ccc3F)nc12)N1CC[C@@H](O)C1 , please.
Result: 2510
